# System: P388
# Experiment Description: Cytotoxicity, 50% inhibitory concentration against P388 Mouse T cell leukemia cell line by MTT assay
# Type: functional, cell-based
Test Readout: log10 of IC50 (log10 of the value in µM)
Hello, just confirming the data are log10 of IC50 with units of µM.

{"columns": ["Molecule", "log10 of IC50"],
 "data": [
  ["COCC(=O)OC1C#CCCCCC#C/C1=C\\c1cccc2ccccc12 (stereo unspecified)", 1.08]
]}

Respectfully, I request log10 of IC50 for each entry included below.
1. COCC(=O)OC(/C1=C/C#CCCCCC#C1)c1cccc2ccccc12 (stereo unspecified)
2. OC1C#CCCCCC#C/C1=C\c1ccccc1 (stereo unspecified)
3. OC1C#CCCCCC#C/C1=C\c1cccc2ccccc12 (stereo unspecified)
4. COc1ccc(/C=C2\C#CCCCCC#CC2O)cc1 (stereo unspecified)
5. CC(=O)OC1C#CCCCCC#C/C1=C\c1cccc2ccccc12 (stereo unspecified)

0.58
1.40
1.61
0.76
0.38

###

# Test system: P388
# Experiment Description: Cytotoxicity, 50% inhibitory concentration against P388 Mouse T cell leukemia cell line by MTT assay
# Type: functional, cell-based
Test Readout: pIC50
Numbers only, as −log10 of the molar value.

{"columns": ["Molecule", "pIC50"],
 "data": [
  ["OC1C#CCCCCC#C/C1=C\\c1ccc2ccccc2c1 (centres undefined)", 5.44],
  ["COCC(=O)OC(/C1=C/C#CCCCCC#C1)c1ccc2ccccc2c1 (centres undefined)", 5.02],
  ["COCC(=O)OC1C#CCCCCC#C/C1=C\\c1ccccc1 (centres undefined)", 4.64],
  ["COc1ccc(/C=C2\\C#CCCCCC#CC2OC(C)=O)cc1 (centres undefined)", 4.82],
  ["COc1ccc(C(O)/C2=C/C#CCCCCC#C2)cc1 (centres undefined)", 4.89],
  ["CC(=O)OC1C#CCCCCC#C/C1=C\\c1ccccc1 (centres undefined)", 4.32],
  ["COCC(=O)OC(/C1=C/C#CCCCCC#C1)c1ccccc1 (centres undefined)", 5.11],
  ["CC(=O)OC1C#CCCCCC#C/C1=C\\c1ccc2ccccc2c1 (centres undefined)", 5.55]
]}

# input molecule: COCC(=O)OC1C#CCCCCC#C/C1=C\c1ccc2ccccc2c1 (centres undefined) ; wanted: its pIC50
4.55
